test system: DMS-273; assay: NCI tumour cell line growth inhibition, 48 h
Activity calls are given as the source filed them. Cut-off read from the data, not from the text of the source: active = GI50 up to about 1.1 µM and inactive = higher.
Entry note: the call must match one of active, inactive

smiles_string=O=C1/C(=C/c2ccccc2)CN(C(=O)Oc2ccc([N+](=O)[O-])cc2)C/C1=C\c1ccccc1 group_label=active
smiles_string=C/C(=N\NC(=S)N1CCCCCC1)c1nccnc1C group_label=active
smiles_string=COc1ccc(S(=O)(=O)N/N=C/CN2C(=O)c3ccccc3C2=O)cc1 group_label=inactive

Kindly consider the entry below.
Ask: Field: outcome | Entry: CSc1ccc2c(cc1=O)[C@@H](NC(=O)c1ccc(F)cc1)CCc1cc(O)c(O)c(O)c1-2
Reply: inactive

----------
Target or system HCT-15: recorded GI50 listed per item.

Consider the worked cases shown below.
compound=O=C(CSC(=S)N1CCOCC1)Nc1nc2c(s1)CCCC2 measured_metric=GI50 readout_value="> 100 µM"
compound="CC(Nc1cc(=O)n(C)c(=O)[nH]1)c1ccccc1 (stereo unspecified)" measured_metric=GI50 readout_value="> 100 µM"

Provide GI50 values for the following items, in order.
1. CN(C)CCCn1c(-c2cc(C(C)(C)C)c(O)c(C(C)(C)C)c2)cs/c1=N\c1ccccc1
2. c1ccc(CSC2(SCc3ccccc3)CCCC2)cc1
3. CC(=O)Nc1ccc(C2[C@H]3C(=O)N(c4ccc(Cc5ccc(N6C(=O)[C@@H]7ON(c8ccccc8)C(c8ccc(NC(C)=O)cc8)[C@@H]7C6=O)cc5)cc4)C(=O)[C@H]3ON2c2ccccc2)cc1 (stereo partly specified)

Reply:
["3.24 µM", "> 10 µM", "> 100 µM"]

Ask: I am curious: what GI50 value has been reported for CCOS(=O)(=O)c1ccc(-c2c3nc(c(-c4ccc(S(=O)(=O)OCC)cc4)c4ccc([nH]4)c(-c4ccc(S(=O)(=O)OCC)cc4)c4nc(c(-c5ccc(S(=O)(=O)OCC)cc5)c5ccc2[nH]5)C=C4)C=C3)cc1 ?
Reply: > 31.6 µM

----------
system: OVCAR-8; experiment: NCI tumour cell line growth inhibition, 48 h
Calls of active or inactive are those of the source. No stated cut-off is given here; in the data, active = GI50 up to about 1.1 µM and inactive = higher.
Would you kindly list GI50 for each of these molecules?

Here are 3 molecules together with their reported answers.
molecule="COc1ccc(Cc2nc3cc(C(F)(F)F)ccc3n2C[C@@H]2CCCN3CCCCC23)cc1 (stereo partly drawn)" test_target=OVCAR-8 readout_value="15.3 µM (inactive)"
molecule="CC(=O)CC1(OC(=O)C2C(C=C(C)C)C2(C)C)C(=O)Nc2ccccc21 (stereo not drawn)" test_target=OVCAR-8 readout_value="> 100 µM (inactive)"
molecule=C[C@@H](c1ccccc1)N1CN(C(=O)OCc2ccccc2)C(C)(C)CC1=O test_target=OVCAR-8 readout_value="> 100 µM (inactive)"

For each of the molecules below, state GI50.
1. O=c1oc2ccc3ccccc3c2cc1-c1cn2ccsc2n1
2. BC(=O)NC(CC(C)C)C(=O)NCC(=O)NC1c2ccsc2C(=O)C1O.CN(C)C (stereo not drawn)
3. CCOC(=O)C(=O)Nc1c(F)cc(F)cc1Br
4. CC(=O)N/N=C1/CC[C@@]2(C)C(=CC[C@H]3C4CCC(C(C)CCCC(C)C)[C@@]4(C)CCC32)C1(C)C (stereo partly drawn)
5. CS(=O)(=O)OCOS(C)(=O)=O
6. O=C(/C=C/c1cccc(Br)c1)c1ccc(Cl)cc1
7. CNC(=O)OCCN1c2ccccc2Sc2ccccc21

Reply:
1: 19.2 µM (inactive); 2: > 100 µM (inactive); 3: > 100 µM (inactive); 4: 51.1 µM (inactive); 5: > 100 µM (inactive); 6: 17 µM (inactive); 7: > 100 µM (inactive)

Hi team, please reply with GI50 for each item in this list.
1. CC(=O)Oc1ccccc1C(=O)Nc1ncc([N+](=O)[O-])s1 [NITAZOXANIDE]
2. CC(C)(C)n1c(=O)[nH]c(=O)n1C(C)(C)C
3. CCCCCCCCCCCCCCCCOC[C@@H](COC(c1ccccc1)(c1ccccc1)c1ccccc1)O[PH](=S)OC (stereo partly drawn)

Reply:
15.7 µM (inactive)
> 100 µM (inactive)
12.1 µM (inactive)
